Test system: Digitaria ciliaris
Test: Farming soil treatment test
Assay type: in vivo
Conditions: 10 g a.i./10 a; soil surface spray prior to weed growth; 30 days
The entries below come with measured herbicidal efficacy (growth inhibition level) Digitaria ciliaris values attached.
Metric: herbicidal efficacy (growth inhibition level) Digitaria ciliaris

>  <Compound>
C#CCNc1c(C#N)cnn1-c1nn2c(c1Cl)CCCC2 [4.85, 4.156]

>  <Measured On>
Digitaria ciliaris

>  <Observed Value>
4 (4: 40% to less than 50%)

$$$$
>  <Compound>
CC#CCNc1c(C#N)cnn1-c1nn2c(c1Cl)CCCC2 [4.131, 4.132]

>  <Measured On>
Digitaria ciliaris

>  <Observed Value>
4 (4: 40% to less than 50%)

$$$$
>  <Compound>
C#CCN(C)c1c(C#N)cnn1-c1nn2c(c1Cl)CCCC2 [Compound 4.73]

>  <Measured On>
Digitaria ciliaris

>  <Observed Value>
1 (1: 10% to less than 20%)

$$$$
>  <Compound>
C#CCCNc1c(C#N)cnn1-c1nn2c(c1Cl)CCCC2 [Compound 1]

>  <Measured On>
Digitaria ciliaris

>  <Observed Value>
10 (10: 100%)

$$$$
